Reference source: patent US4795758A

Reported Kb values for a set of compounds
target.entity: isolated ductus deferens of rats (Rattus norvegicus, UniProt P43140)
Construct: Norepinephrine causes contractions of the isolated ductus deferens of rats; from tissue; host or cells: isolated ductus deferens of rats
Sequence (P43140 1-466): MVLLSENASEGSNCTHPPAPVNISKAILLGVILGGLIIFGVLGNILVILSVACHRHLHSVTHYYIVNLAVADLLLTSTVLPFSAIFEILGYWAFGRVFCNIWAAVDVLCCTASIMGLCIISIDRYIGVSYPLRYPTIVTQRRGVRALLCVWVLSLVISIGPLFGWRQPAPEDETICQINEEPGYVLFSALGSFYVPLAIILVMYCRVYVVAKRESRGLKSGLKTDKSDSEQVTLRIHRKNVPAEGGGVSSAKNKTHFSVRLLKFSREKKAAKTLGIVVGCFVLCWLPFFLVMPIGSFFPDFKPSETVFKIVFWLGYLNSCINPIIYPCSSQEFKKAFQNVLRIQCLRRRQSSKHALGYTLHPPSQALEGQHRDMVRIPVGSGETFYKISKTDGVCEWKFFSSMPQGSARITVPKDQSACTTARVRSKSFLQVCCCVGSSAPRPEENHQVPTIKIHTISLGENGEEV
measurement.description: In vitro α-adrenolytic activity on isolated ductus deferens
condition.context: negative log of molar concentration requiring doubled norepinephrine concentration, read-out: pA2, α-blocking action towards norepinephrine on isolated ductus deferens (converted)
Counter-ions that a name gives are not always drawn.
Please respond with the number in nM and leave the unit unwritten.

# compound, obs.value
measured = [
    ("CCCCCC(=O)Oc1cc(C(C)C)c(OCCN2CCCC2)cc1C [B 1131]", 105),
    ("Cc1ccc(C(C)C)c(OCCN2CCCC2)c1 [B 1007, hydrochloride]", 182),
]

Proceed to the following item.
Please report the recorded Kb for Cc1cc(OCCN2CCCC2)c(C(C)C)cc1O [B 1058, hydrochloride] .
66.1

----------
measurement.description: Toxicity: 50% lethal dose in mice (p.o. and i.v.)
condition.context: mouse, in vivo, oral, read-out: LD50 p.o.
Counter-ions that a name gives are not always drawn.
Reported LD50 values for a set of compounds

Please review the entries below; each comes with its answer.
# compound, LD50
data = [
    ("CCCCCC(=O)Oc1cc(C(C)C)c(OCCN2CCCC2)cc1C [B 1131]", "~550 mg/kg"),
    ("CCC(=O)Oc1cc(C(C)C)c(OCCN2CCCC2)cc1C [B 1125]", "~300 mg/kg"),
    ("CCCC(=O)Oc1cc(C(C)C)c(OCCN2CCCC2)cc1C [B 1132, hydrochloride]", "~500 mg/kg"),
]

Please report the recorded LD50 for CCCCCCCCCC(=O)Oc1cc(C(C)C)c(OCCN2CCCC2)cc1C [B 1134] .
~400 mg/kg
